Entry source: paper PMC8583760

Tested on: CYP2C9
Construct: gene Cyp2c11; native enzyme activity in rat liver microsomes
Test: CYP probe substrate depletion in rat liver microsomes, HPLC
Assay type: biochemical
Details: typical CYP2C9 substrate (not named); 0-100 μM inhibitor
measurement_kind: IC50 (µM)
Report as a plain number; the unit µM is understood.

Form: compound = COc1cc2c(cc1O)C[C@H]1c3cc(O)c(OC)cc3CC[N@@+]1(C)C2 [pellodendrine] ; IC50 = 16.2

---

Biological target: CYP1A2 (Rattus norvegicus)
Sequence (P04799 2-513): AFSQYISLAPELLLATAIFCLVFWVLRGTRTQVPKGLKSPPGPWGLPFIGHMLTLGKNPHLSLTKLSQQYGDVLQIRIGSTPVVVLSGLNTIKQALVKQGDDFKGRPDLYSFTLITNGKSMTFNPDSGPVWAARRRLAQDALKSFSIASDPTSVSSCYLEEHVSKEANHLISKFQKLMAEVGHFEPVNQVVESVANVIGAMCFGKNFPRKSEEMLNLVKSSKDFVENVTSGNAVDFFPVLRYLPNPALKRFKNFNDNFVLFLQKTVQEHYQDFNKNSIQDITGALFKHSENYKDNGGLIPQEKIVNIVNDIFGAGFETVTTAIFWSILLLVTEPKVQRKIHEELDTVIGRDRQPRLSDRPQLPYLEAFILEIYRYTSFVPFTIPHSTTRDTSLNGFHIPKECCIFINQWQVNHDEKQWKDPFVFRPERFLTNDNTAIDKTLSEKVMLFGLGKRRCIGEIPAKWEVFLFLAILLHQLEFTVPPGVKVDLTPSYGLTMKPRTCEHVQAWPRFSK
measurement_kind: IC50 (µM)
Number only, in µM; omit the unit.

// COc1cc2c(cc1O)C[C@H]1c3cc(O)c(OC)cc3CC[N@@+]1(C)C2 : IC50 value = 23
